tested on: RXRa homodimer (NR concentration 180 nM); assay: PBM binding z-score (relative to random genomic background probes); higher = stronger binding; sequences stand for … in GC…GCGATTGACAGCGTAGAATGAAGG
Known PBM binding z-score of a selection of sequences
Readout Kind: PBM binding z-score

monomer_sequence=TCTTGTTGGTCAAAGGTCACACACTCGAAATGCG tested_target="RXRa homodimer (NR concentration 180 nM)" reported=8.27
monomer_sequence=TCTTGTATATCAGCAGGTTAAGAAAGCTGGCCAA tested_target="RXRa homodimer (NR concentration 180 nM)" reported=0.75
monomer_sequence=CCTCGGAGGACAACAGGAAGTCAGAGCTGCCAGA tested_target="RXRa homodimer (NR concentration 180 nM)" reported=-0.479
monomer_sequence=TTACCAAGGTGAAACGTCGTTGATGCACGCCTTG tested_target="RXRa homodimer (NR concentration 180 nM)" reported=1.01
monomer_sequence=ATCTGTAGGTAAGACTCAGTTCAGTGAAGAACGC tested_target="RXRa homodimer (NR concentration 180 nM)" reported=0.114
monomer_sequence=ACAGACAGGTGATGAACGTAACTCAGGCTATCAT tested_target="RXRa homodimer (NR concentration 180 nM)" reported=0.363
monomer_sequence=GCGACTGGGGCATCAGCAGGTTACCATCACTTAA tested_target="RXRa homodimer (NR concentration 180 nM)" reported=0.259
monomer_sequence=CGTCCAAGGTCAGCAGGCCAGTGAAAGCGACGTG tested_target="RXRa homodimer (NR concentration 180 nM)" reported=3.86
monomer_sequence=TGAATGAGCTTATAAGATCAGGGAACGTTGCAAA tested_target="RXRa homodimer (NR concentration 180 nM)" reported=-0.211
monomer_sequence=TCATATAGGTAAAGGCGAAAGTCGAACGATATGA tested_target="RXRa homodimer (NR concentration 180 nM)" reported=0.727
monomer_sequence=CCGAGTTGGTTATGGGGCATTCAGGCAACGGTGA tested_target="RXRa homodimer (NR concentration 180 nM)" reported=0.0354
monomer_sequence=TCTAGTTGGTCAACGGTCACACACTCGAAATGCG tested_target="RXRa homodimer (NR concentration 180 nM)" reported=1.23
monomer_sequence=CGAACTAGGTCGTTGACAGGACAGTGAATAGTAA tested_target="RXRa homodimer (NR concentration 180 nM)" reported=0.488
monomer_sequence=CCCTACGGGTCACTCCAGGTTATAGCATCGGAGT tested_target="RXRa homodimer (NR concentration 180 nM)" reported=4.72
monomer_sequence=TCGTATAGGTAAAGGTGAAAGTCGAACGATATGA tested_target="RXRa homodimer (NR concentration 180 nM)" reported=2.12
monomer_sequence=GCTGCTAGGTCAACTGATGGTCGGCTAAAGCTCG tested_target="RXRa homodimer (NR concentration 180 nM)" reported=2.91
monomer_sequence=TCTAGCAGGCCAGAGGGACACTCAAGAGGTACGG tested_target="RXRa homodimer (NR concentration 180 nM)" reported=0.112
monomer_sequence=GCTAGCAGGCCATGTGGGTCACTCAATGACGGGC tested_target="RXRa homodimer (NR concentration 180 nM)" reported=0.909
monomer_sequence=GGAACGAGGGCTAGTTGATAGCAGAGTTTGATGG tested_target="RXRa homodimer (NR concentration 180 nM)" reported=-0.467
monomer_sequence=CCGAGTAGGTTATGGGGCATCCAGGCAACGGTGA tested_target="RXRa homodimer (NR concentration 180 nM)" reported=0.858
monomer_sequence=ACTTTTAGTTGAGACGAGGGCAACCGATAGGTTG tested_target="RXRa homodimer (NR concentration 180 nM)" reported=0.7
monomer_sequence=CGTCCAAGGTCAGAGAAGTCAGTGAATGCCGAGT tested_target="RXRa homodimer (NR concentration 180 nM)" reported=3.37
monomer_sequence=ATCTCTAGGTAACAAGTGCAGTGAAAGAGAGGAC tested_target="RXRa homodimer (NR concentration 180 nM)" reported=0.249
monomer_sequence=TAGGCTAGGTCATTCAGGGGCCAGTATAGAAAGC tested_target="RXRa homodimer (NR concentration 180 nM)" reported=3.26
monomer_sequence=ATACCTAGGTGATCGTGAGGTCGTTGATACTAAC tested_target="RXRa homodimer (NR concentration 180 nM)" reported=1.51
monomer_sequence=TCTTGTAGATCAAGAAGGTTAAGAAAGCCTGAGT tested_target="RXRa homodimer (NR concentration 180 nM)" reported=0.863
monomer_sequence=CCTTTTAGTTGACCATAAGGGCAACCGAAGCTCG tested_target="RXRa homodimer (NR concentration 180 nM)" reported=0.506
monomer_sequence=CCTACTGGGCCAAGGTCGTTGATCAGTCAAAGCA tested_target="RXRa homodimer (NR concentration 180 nM)" reported=0.465
monomer_sequence=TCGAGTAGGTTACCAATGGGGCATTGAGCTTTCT tested_target="RXRa homodimer (NR concentration 180 nM)" reported=0.672
monomer_sequence=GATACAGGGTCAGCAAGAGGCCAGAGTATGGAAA tested_target="RXRa homodimer (NR concentration 180 nM)" reported=4.52
monomer_sequence=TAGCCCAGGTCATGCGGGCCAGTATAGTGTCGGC tested_target="RXRa homodimer (NR concentration 180 nM)" reported=3.45
monomer_sequence=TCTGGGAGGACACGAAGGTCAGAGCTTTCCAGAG tested_target="RXRa homodimer (NR concentration 180 nM)" reported=2.01
monomer_sequence=TTACTAAGGTGAAGGTCGTTGATCCCTCTGTAGA tested_target="RXRa homodimer (NR concentration 180 nM)" reported=2.31
monomer_sequence=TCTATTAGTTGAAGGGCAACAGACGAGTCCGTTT tested_target="RXRa homodimer (NR concentration 180 nM)" reported=0.567
monomer_sequence=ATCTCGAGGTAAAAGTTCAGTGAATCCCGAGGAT tested_target="RXRa homodimer (NR concentration 180 nM)" reported=2.58
monomer_sequence=CCGACTGGGGCAAGATTACCATAACGCACAGCCA tested_target="RXRa homodimer (NR concentration 180 nM)" reported=0.0853
monomer_sequence=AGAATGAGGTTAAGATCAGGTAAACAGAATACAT tested_target="RXRa homodimer (NR concentration 180 nM)" reported=2.81
monomer_sequence=TTACCAAGGTGAAATGTCGTTGATGCACGCCTTG tested_target="RXRa homodimer (NR concentration 180 nM)" reported=1.16
monomer_sequence=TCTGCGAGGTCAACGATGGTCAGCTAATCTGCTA tested_target="RXRa homodimer (NR concentration 180 nM)" reported=7.18
monomer_sequence=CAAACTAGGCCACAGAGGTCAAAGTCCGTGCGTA tested_target="RXRa homodimer (NR concentration 180 nM)" reported=6.16
monomer_sequence=CGTCCAAGGTCAGCAGGTCAGTGGAAGCGACGTG tested_target="RXRa homodimer (NR concentration 180 nM)" reported=4.81
monomer_sequence=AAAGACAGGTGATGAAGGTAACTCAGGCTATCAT tested_target="RXRa homodimer (NR concentration 180 nM)" reported=0.572
monomer_sequence=TCTAGCAGGCCAGAGGATCACTCAAGAGGTACGG tested_target="RXRa homodimer (NR concentration 180 nM)" reported=0.0922
monomer_sequence=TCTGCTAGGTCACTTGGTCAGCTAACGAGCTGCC tested_target="RXRa homodimer (NR concentration 180 nM)" reported=2.41
monomer_sequence=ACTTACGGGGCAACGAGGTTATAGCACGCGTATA tested_target="RXRa homodimer (NR concentration 180 nM)" reported=1.73
monomer_sequence=TAGGCTAGGTCATTGGGCCAGTATAGTACGCATC tested_target="RXRa homodimer (NR concentration 180 nM)" reported=2.5
monomer_sequence=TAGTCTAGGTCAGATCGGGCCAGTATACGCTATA tested_target="RXRa homodimer (NR concentration 180 nM)" reported=1.39
monomer_sequence=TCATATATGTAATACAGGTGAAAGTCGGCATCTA tested_target="RXRa homodimer (NR concentration 180 nM)" reported=1.13
monomer_sequence=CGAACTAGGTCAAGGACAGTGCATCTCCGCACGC tested_target="RXRa homodimer (NR concentration 180 nM)" reported=2.72
